system: T1, human transferrin receptor (recombinant, for surface plasmon resonance) (human, UniProt P02786 89-760)
T1 construct: also called huTfR; human transferrin receptor-biotinylated
T1 sequence (P02786 89-760 limits assumed): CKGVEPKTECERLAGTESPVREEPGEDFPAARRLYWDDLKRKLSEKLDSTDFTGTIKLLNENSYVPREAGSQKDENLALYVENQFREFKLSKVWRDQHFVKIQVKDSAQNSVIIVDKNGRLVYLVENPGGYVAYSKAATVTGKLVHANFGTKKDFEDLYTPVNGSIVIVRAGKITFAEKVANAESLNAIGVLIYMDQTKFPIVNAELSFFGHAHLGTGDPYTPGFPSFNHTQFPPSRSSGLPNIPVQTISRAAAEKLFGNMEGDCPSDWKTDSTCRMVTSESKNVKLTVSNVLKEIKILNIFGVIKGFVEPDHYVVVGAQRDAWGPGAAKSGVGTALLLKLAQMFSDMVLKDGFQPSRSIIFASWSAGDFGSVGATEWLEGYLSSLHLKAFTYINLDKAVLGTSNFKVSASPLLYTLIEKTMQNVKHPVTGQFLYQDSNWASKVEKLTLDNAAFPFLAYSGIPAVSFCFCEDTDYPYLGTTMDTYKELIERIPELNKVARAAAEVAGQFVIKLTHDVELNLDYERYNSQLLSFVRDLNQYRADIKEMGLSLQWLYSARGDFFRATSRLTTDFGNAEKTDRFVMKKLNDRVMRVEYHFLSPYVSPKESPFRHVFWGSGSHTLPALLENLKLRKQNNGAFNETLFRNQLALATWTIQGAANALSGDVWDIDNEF
experimentalProtocol: SPR
recordedMetric: koff

Consider the worked cases shown below.
4/94 SEQ ID NO 196 / murine VL (antibody, V domains shown) VH: QVQLVQSGAEVKKPGASVKVSCKASGFNIKDTYIHWVIQAPGQGLEWMGRIDPANGDTKSDPKFQGRVTITADTSTSTVYMELSSLRSEDTAVYYCVRDYLYPYYFDFWGQGTTVTVSS VL: KIVMTQSPKSMSMSVGERVTLNCRASESVDTYVSWYQQKPEQSPELLIYGASNRYTGVPDRFTGSGSATDFTLTISSVQAEDLADYYCGQTYNYPLTFGAGTKLELKR
0.000339 s⁻¹
4/94 SEQ ID NO 196 / SEQ ID NO 207 (antibody, V domains shown) VH: QVQLVQSGAEVKKPGASVKVSCKASGFNIKDTYIHWVIQAPGQGLEWMGRIDPANGDTKSDPKFQGRVTITADTSTSTVYMELSSLRSEDTAVYYCVRDYLYPYYFDFWGQGTTVTVSS VL: KIVLTQSPGTLSLSPGERATLSCRASESVDTYVSWYQQKPGQAPRLLIYGASNRYTGVPDRFSGSGSGTDFTLTISRLEPEDFADYYCGQTYNYPLTFGQGTKLEI
0.00043 s⁻¹
4/94 SEQ ID NO 200 / murine VL (antibody, V domains shown) VH: EVQLVESGGGLVQPGGSLRLSCAASGFNIKDTYIHWVIQAPGKGLEWVGRIDPANGDTKSDPSVQVRATISADTSKNTAYLQMNSLRAEDTAVYYCVRDYLYPYYFDFWGQGTTVTVSS VL: KIVMTQSPKSMSMSVGERVTLNCRASESVDTYVSWYQQKPEQSPELLIYGASNRYTGVPDRFTGSGSATDFTLTISSVQAEDLADYYCGQTYNYPLTFGAGTKLELKR
0.000232 s⁻¹
4/94 SEQ ID NO 198 / murine VL (antibody, V domains shown) VH: QVQLVQSGAEVKKPGSSVKVSCKASGFNIKDTYIHWVIQRPGQGLEWMGRIDPANGDTKSDPKFQGRVTITADESTSTAYMELSSLRSEDTAVYYCVRDYLYPYYFDFWGQGTTVTVSS VL: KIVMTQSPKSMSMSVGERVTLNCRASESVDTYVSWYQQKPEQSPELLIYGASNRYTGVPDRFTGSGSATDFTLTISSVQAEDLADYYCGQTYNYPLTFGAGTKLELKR
0.000544 s⁻¹
4/94 SEQ ID NO 199 / SEQ ID NO 201 (antibody, V domains shown) VH: QVQLQESGPGLVKPSETLSLTCTVSGFNIKDTYIHWVIQRPGKGLEWIGRIDPANGDTKSDPSLQSRVTISADTSKNQASLKLSSVTAADTAVYYCVRDYLYPYYFDFWGQGTTVTVSS VL: KIQMTQSPSSLSASVGDRVTITCRASESVDTYVSWYQQKPGKAPKLLIYGASNRYTGVPSRFSGSGSGTDFTLTISSLQPEDFADYYCGQTYNYPLTFGQGTKLEI
0.000486 s⁻¹
4/94 SEQ ID NO 199 / SEQ ID NO 208 (antibody, V domains shown) VH: QVQLQESGPGLVKPSETLSLTCTVSGFNIKDTYIHWVIQRPGKGLEWIGRIDPANGDTKSDPSLQSRVTISADTSKNQASLKLSSVTAADTAVYYCVRDYLYPYYFDFWGQGTTVTVSS VL: EIVLTQSPGTLSLSPGERATLSCRASESVDTYVSWYQQKPGQAPRLLIYGASNRYTGVPDRFSGSGSGTDFTLTISRLEPEDFADYYCGQTYNYPLTFGQGTKLEI
0.00055 s⁻¹
4/94 SEQ ID NO 195 / murine VL (antibody, V domains shown) VH: QVQLVQSGAEVKKPGASVKVSCKASGFNIKDTYIHWVIQAPGQGLEWMGRIDPANGDTKSAPKFQVRVTITADTSTSTVYMELSSLRSEDTAVYYCVRDYLYPYYFDFWGQGTTVTVSS VL: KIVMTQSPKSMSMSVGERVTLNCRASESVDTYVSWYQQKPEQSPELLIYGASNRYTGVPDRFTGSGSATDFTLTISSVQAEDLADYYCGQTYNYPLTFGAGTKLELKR
0.000364 s⁻¹
4/94 murine VH / SEQ ID NO 208 (antibody, V domains shown) VH: EVQLQQSGAVLVKPGASVKLSCPASGFNIKDTYIHWVIQRPEQGLEWIGRIDPANGDTKCDPKFQVKATITADTSSNTAYLQLSSLTSEDTAVYFCVRDYLYPYYFDFWGQGTTLTVSS VL: EIVLTQSPGTLSLSPGERATLSCRASESVDTYVSWYQQKPGQAPRLLIYGASNRYTGVPDRFSGSGSGTDFTLTISRLEPEDFADYYCGQTYNYPLTFGQGTKLEI
0.000148 s⁻¹
4/94 SEQ ID NO 197 / SEQ ID NO 207 (antibody, V domains shown) VH: QVQLVQSGAEVKKPGSSVKVSCKASGFNIKDTYIHWVIQAPGQGLEWMGRIDPANGDTKSDPKFQGRVTITADESTSTAYMELSSLRSEDTAVYYCVRDYLYPYYFDFWGQGTTVTVSS VL: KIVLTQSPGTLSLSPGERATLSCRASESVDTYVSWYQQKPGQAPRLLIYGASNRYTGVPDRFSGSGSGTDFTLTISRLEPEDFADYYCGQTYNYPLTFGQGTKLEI
0.000703 s⁻¹

Next, consider the following binder.
Ask: Fill blank: measured koff of the binder 4/94 SEQ ID NO 197 / SEQ ID NO 201 (antibody, V domains shown) VH: QVQLVQSGAEVKKPGSSVKVSCKASGFNIKDTYIHWVIQAPGQGLEWMGRIDPANGDTKSDPKFQGRVTITADESTSTAYMELSSLRSEDTAVYYCVRDYLYPYYFDFWGQGTTVTVSS VL: KIQMTQSPSSLSASVGDRVTITCRASESVDTYVSWYQQKPGKAPKLLIYGASNRYTGVPSRFSGSGSGTDFTLTISSLQPEDFADYYCGQTYNYPLTFGQGTKLEI is ____.
Result: 0.000657 s⁻¹
